Assay type: in vivo
Conditions: human, serum, po, 300 mg, Cmax, genotype (0) CC, n=9; 300 mg single oral dose of allopurinol; mean ± SE
measurement type: Cmax

O=c1[nH]c(=O)c2c[nH]nc2[nH]1
5930 ng/mL

Let us examine a further case.
Task: Which Cmax value is on record for `Oc1ncnc2[nH]ncc12` ?
Output: 1370 ng/mL

----------
Format: in vivo
Settings: human, serum, po, 300 mg, AUC0–24, genotype (1) CA; 300 mg single oral dose of allopurinol; mean ± SE
measurement type: AUC(0-t) (ng·h/mL)
Give the quantity in ng·h/mL, number only.

Task: Would you mind telling me what AUC(0-t) value was observed for `O=c1[nH]c(=O)c2c[nH]nc2[nH]1` ?
Output: 93400

----------
Reported Cmax values for the following molecules.
Format: in vivo
Conditions: human, serum, po, 300 mg, Cmax, genotype (1) CA, n=7; 300 mg single oral dose of allopurinol; mean ± SE
Please respond with the number in ng/mL and leave the unit unwritten.

O=c1[nH]c(=O)c2c[nH]nc2[nH]1
6440

Shifting focus to the molecule that follows.
Task: What value of Cmax has been reported for the following molecule? `Oc1ncnc2[nH]ncc12`
Output: 1930

----------
Format: in vivo
Conditions: human, serum, po, 300 mg, AUC0–24, genotype (0) CC; 300 mg single oral dose of allopurinol; mean ± SE
measurement type: AUC(0-t) (ng·h/mL)
Your answer is read as ng·h/mL, so omit the unit and give the number.

Task: Need AUC(0-t), item O=c1[nH]c(=O)c2c[nH]nc2[nH]1 [Oxypurinol, oxypurinol]
Output: 93900

----------
Assay type: in vivo
Conditions: human, serum, po, 300 mg, Tmax, genotype (0) CC; 300 mg single oral dose of allopurinol; median (range)
Measured Tmax, listed per entry for reference.
Dear colleague, please return just the value in h, with no unit written.

Oc1ncnc2[nH]ncc12
1.5

Task: Form field: reported Tmax of `O=c1[nH]c(=O)c2c[nH]nc2[nH]1`
Output: 4

----------
Test: Population PK model of oxypurinol
Type: in vivo, human
Conditions: male, human, plasma, oral, 300 mg
measurement type: Vd/F
I'd appreciate it if you included the unit after the number.

Task: Look up Vd/F: O=c1[nH]c(=O)c2c[nH]nc2[nH]1 [Oxypurinol, oxypurinol]
Output: 57 L
